- Tested on: Mycobacterium tuberculosis
- Assay summary: Antimicrobial activity against wild-type Mycobacterium bovis BCG by microplate Alamar blue assay
- Assay type: functional
- Measurement conditions: variant bovis BCG
Mark Met only when MIC stays strictly below 2 µg/mL. Values equal to the cut-off are Not met.

Input line: Is the reported MIC for CN[C@H](CC(C)C)C(=O)N[C@H]1C(=O)N[C@@H](CC(N)=O)C(=O)N[C@H]2C(=O)N[C@H]3C(=O)N[C@H](C(=O)N[C@H](C(=O)O)c4cc(O)cc(O)c4-c4cc3ccc4O)[C@H](O)c3ccc(c(Cl)c3)Oc3cc2cc(c3O[C@@H]2O[C@H](CO)[C@@H](O)[C@H](O)[C@H]2O[C@H]2C[C@](C)(N)[C@H](O)[C@H](C)O2)Oc2ccc(cc2Cl)[C@H]1O strictly below 2 µg/mL?
Output line: Not met

Input line: Request: O=C(N[C@H](CO)[C@H](O)c1ccc([N+](=O)[O-])cc1)C(Cl)Cl
Output line: Not met

Input line: Another: CC1(C)S[C@@H]2[C@H](NC(=O)[C@H](N)c3ccccc3)C(=O)N2[C@H]1C(=O)O
Output line: Not met

Input line: Here is the next compound: CN[C@@H]1[C@H](O[C@H]2[C@H](O[C@H]3[C@H](O)[C@@H](O)[C@H](N=C(N)N)[C@@H](O)[C@@H]3N=C(N)N)O[C@@H](C)[C@]2(O)C=O)O[C@@H](CO)[C@H](O)[C@H]1O
Output line: Met

---

- Test system: Mycobacterium tuberculosis
- Assay summary: Resistance factor, ratio of MIC for Mycobacterium bovis BCG ML1034 to MIC for wild-type Mycobacterium bovis BCG
- Type: functional, variant bovis BCG
Measurement label: Ratio
When you answer, write just the number.

Input line: Consider the molecule shown here: CN[C@H](CC(C)C)C(=O)N[C@H]1C(=O)N[C@@H](CC(N)=O)C(=O)N[C@H]2C(=O)N[C@H]3C(=O)N[C@H](C(=O)N[C@H](C(=O)O)c4cc(O)cc(O)c4-c4cc3ccc4O)[C@H](O)c3ccc(c(Cl)c3)Oc3cc2cc(c3O[C@@H]2O[C@H](CO)[C@@H](O)[C@H](O)[C@H]2O[C@H]2C[C@](C)(N)[C@H](O)[C@H](C)O2)Oc2ccc(cc2Cl)[C@H]1O What is its recorded Ratio?
Output line: 4

Input line: Moving on to CN[C@@H]1[C@H](O[C@H]2[C@H](O[C@H]3[C@H](O)[C@@H](O)[C@H](N=C(N)N)[C@@H](O)[C@@H]3N=C(N)N)O[C@@H](C)[C@]2(O)C=O)O[C@@H](CO)[C@H](O)[C@H]1O
Output line: 32

Input line: Please answer likewise for CC1(C)S[C@@H]2[C@H](NC(=O)[C@H](N)c3ccccc3)C(=O)N2[C@H]1C(=O)O
Output line: 32

Input line: Same for O=C(N[C@H](CO)[C@H](O)c1ccc([N+](=O)[O-])cc1)C(Cl)Cl
Output line: 64
